Kindly supply the reported RP-LC retention time values for the records listed here.
Experiment: gradient 5% acetonitrile 3 min, to 50% in 2 min, to 85% in 15 min, held 3 min, 100 µL/min
Conditions: column: Zorbax Extend-C18 2.1 x 50 mm; eluents: water / acetonitrile, 0.1% formic acid
The answer is to be given in s; state only the numeric part.

RP-LC retention time in this record for COc1ccc(Br)cc1Cn1nnc(C(=O)NCc2ccco2)c1N : 791

Sure, the documented RP-LC retention time for CCn1cc(C)c(C(=O)O)c1CC(=O)N1CCC(c2ccccc2)C1 (stereo not given) is 802

Lookup result for CCC(C(=O)N1CCN(C)CC1)n1c2ccccc2c2cnn(C)c(=O)c21 (stereo not given) ; measured RP-LC retention time: 627

Reported RP-LC retention time ( CCOC(=O)CNC(=O)N1CCN(Cc2nc3cc(C)ccc3o2)CC1 ) = 616

What the record says about COc1ccc(-c2noc(C3CC(=O)N(c4ccc5c(c4)OCO5)C3)n2)cc1 (stereo not given) : RP-LC retention time is 881

Entry under test: Cc1ccc(C2=NN3C(C2)c2ccccc2OC32CCCC2)o1 (stereo not given) . Its RP-LC retention time was 942

# RP-LC retention time of CCCn1nccc1-c1csc(S(=O)(=O)NC(C)(C)CC)c1 = 975

Sure, the documented RP-LC retention time for COc1cccc(CNC(=O)Cn2c(C)cc(-c3nnc(C4CCC4)o3)c2C)c1 is 834

Recorded result, CNC(=O)N1CCCC(Cn2cnc3cccnc32)C1 (stereo not given) , RP-LC retention time: 574

Data point: Cc1c2c(nn1-c1ccc(SCC(=O)NC(C)C)nn1)CCC2 ; RP-LC retention time = 841
